- targetOrSystem: recombinant human MASP2 active protease (amino acids 297-686, C-terminal His Tag) (human, UniProt O00187 297-686)
- Sequence (O00187 other isoform, or with tags, fused parts or gaps limits assumed): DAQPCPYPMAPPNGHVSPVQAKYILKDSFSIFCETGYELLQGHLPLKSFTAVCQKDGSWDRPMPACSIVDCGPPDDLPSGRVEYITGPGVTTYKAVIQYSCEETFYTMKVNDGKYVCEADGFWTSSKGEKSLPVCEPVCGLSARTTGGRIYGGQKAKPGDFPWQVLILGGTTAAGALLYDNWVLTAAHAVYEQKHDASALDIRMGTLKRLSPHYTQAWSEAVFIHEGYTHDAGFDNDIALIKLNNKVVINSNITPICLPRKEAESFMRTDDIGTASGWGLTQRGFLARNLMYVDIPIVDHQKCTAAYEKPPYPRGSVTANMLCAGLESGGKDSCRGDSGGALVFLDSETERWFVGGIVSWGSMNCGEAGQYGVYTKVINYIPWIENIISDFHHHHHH
- protocolDescription: cell-based or functional assay
Numbered stars: 1 amine (or outer) side, 2 acyl side, 3 side chain; on linkers, the order of the positions; unused ones are H or OH. Bridge positions count the residues as written; N and C are the ends. Square brackets hold non-standard residues; d marks the D form. Primed or numbered codes have the meaning given here. Ends that are not written are not given here. * marks the point of attachment. X8 = (R)‑4‑Amino‑6‑methylheptanoic acid, CC(C)C[C@@H](CCC(=O)[*:2])N[*:1]; Tranexamic″ = tranexamic acid, NC[C@H]1CC[C@@H](C(=O)*)CC1; NH(CH2CH2O)4CH2CO = O=C(COCCOCCOCCOCCN[*:1])[*:2]; (Trifluoro)l/L = 5,5,5-trifluoro-DL-leucine; Oic = O=C(O)[C@@H]1C[C@@H]2CCCC[C@@H]2N1; Pro(cis-4-F) = O=C(O)[C@@H]1C[C@H](F)CN1; Morpholine(3S-CO) = O=C(O)[C@@H]1COCCN1; βPro(3S) = O=C([C@H]1CCN([*:1])C1)[*:2]; tBuAla = CC(C)(C)C[C@H](N)C(=O)O; Pen = CC(C)(S)[C@H](N)C(=O)O; Sar = CNCC(=O)O
Entries and their human MASP2 IC50
// note: answer is a bare numeric in nM

[
  {
    "binder": "GICSRSL[Morpholine(3S-CO)]PICIPD-OH (disulfide 3-11) [Example 357: GIC+SRSL-(Morpholine-3-carboxylic)-PIC+IPD-OH]",
    "human MASP2 IC50 / nM": 1300
  },
  {
    "binder": "{Tranexamic″}-ICSRS[tBuAla]PPI[Pen]IP-{NH(CH2CH2O)4CH2CO-NH2} (disulfide 2-10; SMILES CC[C@H](C)[C@@H]1NC(=O)[C@@H]2CCCN2C(=O)[C@@H]2CCCN2C(=O)[C@H](CC(C)(C)C)NC(=O)[C@H](CO)NC(=O)[C@H](CCCNC(=N)N)NC(=O)[C@H](CO)NC(=O)[C@@H](NC(=O)[C@@H](NC(=O)[C@H]2CC[C@@H](CN)CC2)[C@@H](C)CC)CSSC(C)(C)[C@@H](C(=O)N[C@H](C(=O)N2CCC[C@H]2C(=O)NCCOCCOCCOCCOCC(N)=O)[C@@H](C)CC)NC1=O) [Example 422: (Tranexamic)-IC+SRS-((tBu)A)-PPI-(Pen)+IP-(PEG4-CH2CO2H (15 atoms))-NH2]",
    "human MASP2 IC50 / nM": 12
  }
]

(Q) Look up human MASP2 IC50 for this binder: [Sar]ICSRSLPPICID-NH2 (disulfide 3-11; N-terminus assumed; SMILES CC[C@H](C)[C@H](NC(=O)CNC)C(=O)N[C@H]1CSSC[C@@H](C(=O)N[C@H](C(=O)N[C@@H](CC(=O)O)C(N)=O)[C@@H](C)CC)NC(=O)[C@H]([C@@H](C)CC)NC(=O)[C@@H]2CCCN2C(=O)[C@@H]2CCCN2C(=O)[C@H](CC(C)C)NC(=O)[C@H](CO)NC(=O)[C@H](CCCNC(=N)N)NC(=O)[C@H](CO)NC1=O) [Example 317: ((N-Me)G)-IC+SRSLPPIC+ID-NH2]
(A) 210

(Q) And for ICSRSLP[Oic]I[Pen]IPE-NH2 (disulfide 2-10; N-terminus assumed; SMILES CC[C@H](C)[C@H](N)C(=O)N[C@H]1CSSC(C)(C)[C@@H](C(=O)N[C@H](C(=O)N2CCC[C@H]2C(=O)N[C@@H](CCC(=O)O)C(N)=O)[C@@H](C)CC)NC(=O)[C@H]([C@@H](C)CC)NC(=O)[C@@H]2C[C@@H]3CCCC[C@@H]3N2C(=O)[C@@H]2CCCN2C(=O)[C@H](CC(C)C)NC(=O)[C@H](CO)NC(=O)[C@H](CCCNC(=N)N)NC(=O)[C@H](CO)NC1=O) [Example 372: IC+SRSLP-(Oic)-I-(Pen)+IPE-NH2] ?
(A) 660

(Q) And for GICSRS[(Trifluoro)l/L]PPICIPD-OH (disulfide 3-11) [Example 384: GIC+SRS-((Trifluoro)l/L)-PPIC+IPD-OH] ?
(A) 260

(Q) And for AICSRSLP[(3S-OH)P]ICIPD-NH2 (disulfide 3-11) [Example 355: AIC+SRSLP-((3S-OH)P)-IC+IPD-NH2] ?
(A) 930

(Q) And for GICSRSLP[Pro(cis-4-F)]ICIPD-OH (disulfide 3-11; N-terminus assumed; SMILES CC[C@H](C)[C@H](NC(=O)CN)C(=O)N[C@H]1CSSC[C@@H](C(=O)N[C@H](C(=O)N2CCC[C@H]2C(=O)N[C@@H](CC(=O)O)C(=O)O)[C@@H](C)CC)NC(=O)[C@H]([C@@H](C)CC)NC(=O)[C@@H]2C[C@H](F)CN2C(=O)[C@@H]2CCCN2C(=O)[C@H](CC(C)C)NC(=O)[C@H](CO)NC(=O)[C@H](CCCNC(=N)N)NC(=O)[C@H](CO)NC1=O) [Example 414: GIC+SRSLP-((cis-Fluoro)P)-IC+IPD-OH] ?
(A) 4000

(Q) And for [Sar]ICSRSLP[Oic]I[Pen]IP[βPro(3S)]-OH (disulfide 3-11; N-terminus assumed; SMILES CC[C@H](C)[C@H](NC(=O)CNC)C(=O)N[C@H]1CSSC(C)(C)[C@@H](C(=O)N[C@H](C(=O)N2CCC[C@H]2C(=O)N2CC[C@H](C(=O)O)C2)[C@@H](C)CC)NC(=O)[C@H]([C@@H](C)CC)NC(=O)[C@@H]2C[C@@H]3CCCC[C@@H]3N2C(=O)[C@@H]2CCCN2C(=O)[C@H](CC(C)C)NC(=O)[C@H](CO)NC(=O)[C@H](CCCNC(=N)N)NC(=O)[C@H](CO)NC1=O) [Example 456: ((N-Me)G)-IC+SRSLP-(Oic)-I-(Pen)+IP-((S)-Pyrrolidine-3-carboxylic acid)-OH] ?
(A) 110

(Q) And for [Sar]ICSRSLP[Oic]I[Pen]IP[X8]-OH (disulfide 3-11; N-terminus assumed; SMILES CC[C@H](C)[C@H](NC(=O)CNC)C(=O)N[C@H]1CSSC(C)(C)[C@@H](C(=O)N[C@H](C(=O)N2CCC[C@H]2C(=O)N[C@H](CCC(=O)O)CC(C)C)[C@@H](C)CC)NC(=O)[C@H]([C@@H](C)CC)NC(=O)[C@@H]2C[C@@H]3CCCC[C@@H]3N2C(=O)[C@@H]2CCCN2C(=O)[C@H](CC(C)C)NC(=O)[C@H](CO)NC(=O)[C@H](CCCNC(=N)N)NC(=O)[C@H](CO)NC1=O) [Example 450: ((N-Me)G)-IC+SRSLP-(Oic)-I-(Pen)+IP-((R)-4-Amino-6-methylheptanoic acid)-OH] ?
(A) 230
